Test system: K-562 leukemia
TEST NAME: NCI tumour cell line growth inhibition, 48 h; in the data active = GI50 below about 0.43 µM; inactive = the rest
Labels: True (active), False (inactive)

>>> class_label("C=CCC(NCc1ccccc1)c1cn(C(=O)OCC)c2ccccc12 (stereo not given)")
"False"
>>> class_label("Cc1nc2ccccc2c(/C=C/c2ccc(F)cc2)c1C(=O)/C=C/c1ccccc1")
"False"
>>> class_label("COc1ccc(C(=O)c2no[n+]([O-])c2C(=O)c2ccc(OC)cc2)cc1")
"False"
>>> class_label("O=C1c2c[n+](Cc3ccccc3)ccc2-c2nc3ccccc3c3ccnc1c23")
"False"
>>> class_label("Cc1nc2sc(C(=O)Nc3cccc4c3OCCO4)c(N)c2cc1C(C)O (stereo not given)")
"False"
>>> class_label("O=C(Nc1cccc2[nH]c(C(F)(F)F)nc12)c1ccc(Br)cc1F")
"False"
>>> class_label("COc1cccc(C2=C(c3cn(C)c4c(C)cccc34)C(=O)NC2=O)c1")
"False"
>>> class_label("O=C1/C(=C/c2ccc([N+](=O)[O-])s2)Oc2ccc(Br)cc21")
"True"
>>> class_label("CC(C)(C)c1ccc(OCCCCCCCN2CCNCC2)cc1")
"False"
>>> class_label("COC(=O)c1cc2c3cc(Cl)ccc3[nH]c2c2ncccc12")
"False"

----------
System: SK-MEL-28 melanoma
TEST NAME: NCI tumour cell line growth inhibition, 48 h; in the data active means GI50 below about 0.43 µM; inactive means the rest
Labels: 1 for active, -1 for inactive

>>> class_label("CCOC(=O)c1c(C)n(Cc2ccc(Cl)cc2Cl)c2c1cc(O)c1[nH]c(Cc3ccccc3)nc12")
-1
>>> class_label("COc1cccc2c1C(=O)c1c(O)c3c(c(O)c1C2=O)C[C@@](O)(C(=O)CO)C[C@@H]3OC1CC2C(OCN2CN2COC3C(C)OC(O[C@H]4C[C@](O)(C(=O)CO)Cc5c(O)c6c(c(O)c54)C(=O)c4c(OC)cccc4C6=O)CC32)C(C)O1 (some centres undefined)")
1
>>> class_label("CCOC(=O)c1ccc(N[C@@H]2c3cc4c(cc3C(c3cc(OC)c(O)c(OC)c3)[C@H]3C(=O)OCC32)OCO4)cc1 (some centres undefined)")
-1
>>> class_label("CCCOC(=O)C1C(c2ccc(OC)cc2)NC(c2ccc(OC)cc2)C(C(=O)OCCC)S1(=O)=O (centres undefined)")
-1
>>> class_label("CC(=O)OC1C(C)OC(Oc2c(-c3ccc(O)cc3)oc3cc(O)cc(O)c3c2=O)C(O)C1OC(C)=O (centres undefined)")
-1
>>> class_label("Cc1nc2ccccc2c(/C=C/c2ccc(C(F)(F)F)cc2)c1C(=O)/C=C/c1ccccc1")
-1
>>> class_label("O=S(=O)([O-])c1ccc(C=Nc2ccccc2)c([O-])c1.O=S(=O)([O-])c1ccc(C=Nc2ccccc2)c([O-])c1.[Co+2]")
-1
>>> class_label("Nc1ncnc2c1ncn2C1OC(F)(COS(N)(=O)=O)C(O)C1O (centres undefined)")
-1
>>> class_label("Cc1nc2sc(C(=O)Nc3cccc4c3OCCO4)c(N)c2cc1C(C)O (centres undefined)")
-1
>>> class_label("CCn1cnc(C[C@H](NC(=O)[C@@H](NC(=O)Nc2cc(C(F)(F)F)cc(C(F)(F)F)c2)C(C)(C)C)C(=O)OC)c1")
-1
>>> class_label("C=CC(=O)N1CCN(c2nc(OC[C@@H]3CCCN3C)nc3c(F)c(-c4nc(N)cc(C)c4C(F)(F)F)c(Cl)cc23)[C@@H](C)C1")
-1
>>> class_label("N#C/C(=C\\c1ccccn1)c1nc2ccccc2o1")
-1
>>> class_label("COc1cccc(/C=C2\\COc3ccc(O)c(O)c3C2=O)c1OC")
-1
>>> class_label("O=C(N/N=C/c1coc2ccc(Cl)cc2c1=O)c1cc(O)c(O)c(O)c1")
-1

----------
System: HOP-92 NSCLC
TEST NAME: NCI tumour cell line growth inhibition, 48 h
Recorded GI50 for the following compounds
PROPERTY LABEL: GI50

>>> result("COc1cccc(C2=C(c3cn(C)c4c(C)cccc34)C(=O)NC2=O)c1")
"> 25 µM"
>>> result("O=C(N/N=C/c1cc(Cl)cc(Cl)c1[O-])c1ccccc1O.O=C(N/N=C/c1cc(Cl)cc(Cl)c1[O-])c1ccccc1O.[Mn+2]")
"0.429 µM"
>>> result("CCCCCCCCCCCCNCCCc1ccccc1")
"1.34 µM"
>>> result("O=C(NCCc1nccs1)c1cnc2c(S)cccc2c1")
"19.8 µM"
>>> result("Cc1nc2sc(C(=O)Nc3cccc4c3OCCO4)c(N)c2cc1C(C)O (stereo not given)")
"5.52 µM"

----------
Test system: MDA-MB-435
TEST NAME: NCI tumour cell line growth inhibition, 48 h
PROPERTY LABEL: TGI

>>> result("COc1ccc(/C=N/n2c(Cc3ccccc3)n[nH]c2=O)c(OC)c1")
"> 100 µM"
>>> result("CC(C)(C)c1ccc(OCCCCCCCN2CCNCC2)cc1")
"2.98 µM"
>>> result("COc1ccc(C(=O)c2no[n+]([O-])c2C(=O)c2ccc(OC)cc2)cc1")
"22.9 µM"
>>> result("CC1=NN(c2nc(N)nc(CCl)n2)C(C)(C)C1")
"> 100 µM"
>>> result("CCOC(=O)c1ccc(N[C@@H]2c3cc4c(cc3C(c3cc(OC)c(O)c(OC)c3)[C@H]3C(=O)OCC32)OCO4)cc1 (some centres not stated)")
"> 100 µM"
>>> result("CC(C)(CO)CNc1nc(N)nc(Cl)c1C=O")
"66.5 µM"
>>> result("Clc1nc(NC23CC4CC(CC(C4)C2)C3)nc(NC23CC4CC(CC(C4)C2)C3)n1")
"> 100 µM"
>>> result("O=c1oc2cc(O)ccc2cc1-c1nc2ccccc2o1")
"> 100 µM"
>>> result("COc1cccc(/C=N/[N+](C)(C)C)c1O")
"> 10 µM"
>>> result("COC(=O)c1ccc(C)cc1C1CN=NC12Cc1c(C)cccc1C2=O (configuration not stated)")
"> 71.2 µM"
>>> result("COc1cc2c(cc1OCCCN1CCOCC1)N=C[C@@H]1CCCN1C2=O")
"31 µM"
>>> result("CCOc1ccc(NC(=O)/C=C/c2ccco2)cc1")
"22 µM"
>>> result("Nc1nc(N)c2ncn(Cc3ccccc3CO)c2n1")
"> 100 µM"
>>> result("CC(Oc1ccc(Cl)cc1Cl)C(=O)NN1C(=O)CC(=O)NC1=S (configuration not stated)")
"> 100 µM"
>>> result("O=C(O)CNc1ncc2c(n1)-c1ccccc1OC2")
"> 100 µM"
>>> result("O=C(NC1C(=O)NC(CCc2ccccc2)NC1=O)OCc1ccccc1 (configuration not stated)")
"> 100 µM"
>>> result("O=C1C=CC2(C=C1)O[C@H](CCc1ccccc1)[C@@H](CCc1ccccc1)O2")
"76.1 µM"
>>> result("c1ccc2c(c1)n1c(N3CCCC3)[n+]3ccccc3c1c1c3cccc[n+]3c(N3CCCC3)n21")
"> 100 µM"
>>> result("CC(=O)OC1CCC2(C)C(=CCC3C2CCC2(C)C3CC3OC4(CCC(C)CN4)C(C)C32)C1 (configuration not stated)")
"> 100 µM"
>>> result("Fc1nc(-c2c3ccccc3c3sc4ccccc4n23)nc(N2CCOCCOCCOCCOCC2)n1")
"> 100 µM"
>>> result("CC(C)(C(=O)N(C(=O)N1CCN(c2ccccc2)CC1)S(=O)(=O)c1ccccc1)c1ccc(Cl)cc1")
"> 100 µM"
>>> result("CSCCCNC(=O)c1csc(-c2csc(CCNC(=O)CNC(=O)OC(C)(C)C)n2)n1")
"> 100 µM"

----------
System: SN12C renal
TEST NAME: NCI tumour cell line growth inhibition, 48 h; in the data active = GI50 below about 0.43 µM; inactive = the rest
Labels: active, inactive

>>> class_label("Cc1nc2ccccc2c(/C=C/c2ccc(C(F)(F)F)cc2)c1C(=O)/C=C/c1ccccc1")
"inactive"
>>> class_label("COc1ccc(/C(=N/O)c2cc(F)c(F)c(OC)c2F)cc1O")
"inactive"
>>> class_label("C(#Cc1ccccc1C#Cc1cnccn1)c1cnccn1")
"inactive"
>>> class_label("C=CC(=O)N1CCN(c2nc(OC[C@@H]3CCCN3C)nc3c(F)c(-c4nc(N)cc(C)c4C(F)(F)F)c(Cl)cc23)[C@@H](C)C1")
"inactive"
>>> class_label("COC(=O)c1cc2c3cc(Cl)ccc3[nH]c2c2ncccc12")
"inactive"
>>> class_label("CC[C@@]1(O)C(=O)OCc2c1cc1n(c2=O)Cc2cc3c(N)c(OC)ccc3nc2-1")
"active"
>>> class_label("CC(C)(C)c1ccc(OCCCCCCCN2CCNCC2)cc1")
"inactive"
>>> class_label("CCCCCCCCCCCCNCCCc1ccccc1")
"inactive"
>>> class_label("CCOC(=O)c1nc2sc(Cl)cn2c1/C=N/N=C(N)N")
"inactive"

Where do the numbers come from? From PubChem BioAssay (NCI).
